# Tested on: BaF3
# procedureText: Antiproliferative activity against mouse BaF3 cells harboring FLT3-D835F mutant assessed as inhibition of cell growth
# Type: functional, cell-based
# assaySetup: Mus musculus, BaF3
pIC50: −log10 of the molar value.
endpoint: pIC50

CCc1nc(C(N)=O)c(Nc2ccc(N3CCC(N4CCN(C)CC4)CC3)c(OC)c2)nc1NC1CCOCC1 :: 9.18

###

# System: MV4-11
# procedureText: Antiproliferative activity against human MV4-11 cells assessed as inhibition of cell growth
# Assay type: functional, cell-based
# assaySetup: mv4-11
pIC50: −log10 of the molar value.
endpoint: pIC50

CC1(COc2ccc(Nc3ncc(C(F)(F)F)c(N[C@@H]4CCCNC4)n3)cc2)COC1 :: 8.01
CC1(COc2cccc(Nc3ncc(C(F)(F)F)c(NCC4CCNCC4)n3)c2)COC1 :: 8.16
CC1(COc2ccc(Nc3ncc(C(F)(F)F)c(N[C@H]4CC[C@H](N)CC4)n3)cc2)COC1 :: 7.58
CC1(COc2ccc(Nc3ncc(C(F)(F)F)c(N[C@H]4CC[C@@H](N)CC4)n3)cc2)COC1 :: 9.08
CC1(COc2cccc(Nc3ncc(C(F)(F)F)c(N[C@@H]4CCCNC4)n3)c2)COC1 :: 7.76

###

# testSystem: UniProtKB P36888
# Sequence (P36888 whole entry): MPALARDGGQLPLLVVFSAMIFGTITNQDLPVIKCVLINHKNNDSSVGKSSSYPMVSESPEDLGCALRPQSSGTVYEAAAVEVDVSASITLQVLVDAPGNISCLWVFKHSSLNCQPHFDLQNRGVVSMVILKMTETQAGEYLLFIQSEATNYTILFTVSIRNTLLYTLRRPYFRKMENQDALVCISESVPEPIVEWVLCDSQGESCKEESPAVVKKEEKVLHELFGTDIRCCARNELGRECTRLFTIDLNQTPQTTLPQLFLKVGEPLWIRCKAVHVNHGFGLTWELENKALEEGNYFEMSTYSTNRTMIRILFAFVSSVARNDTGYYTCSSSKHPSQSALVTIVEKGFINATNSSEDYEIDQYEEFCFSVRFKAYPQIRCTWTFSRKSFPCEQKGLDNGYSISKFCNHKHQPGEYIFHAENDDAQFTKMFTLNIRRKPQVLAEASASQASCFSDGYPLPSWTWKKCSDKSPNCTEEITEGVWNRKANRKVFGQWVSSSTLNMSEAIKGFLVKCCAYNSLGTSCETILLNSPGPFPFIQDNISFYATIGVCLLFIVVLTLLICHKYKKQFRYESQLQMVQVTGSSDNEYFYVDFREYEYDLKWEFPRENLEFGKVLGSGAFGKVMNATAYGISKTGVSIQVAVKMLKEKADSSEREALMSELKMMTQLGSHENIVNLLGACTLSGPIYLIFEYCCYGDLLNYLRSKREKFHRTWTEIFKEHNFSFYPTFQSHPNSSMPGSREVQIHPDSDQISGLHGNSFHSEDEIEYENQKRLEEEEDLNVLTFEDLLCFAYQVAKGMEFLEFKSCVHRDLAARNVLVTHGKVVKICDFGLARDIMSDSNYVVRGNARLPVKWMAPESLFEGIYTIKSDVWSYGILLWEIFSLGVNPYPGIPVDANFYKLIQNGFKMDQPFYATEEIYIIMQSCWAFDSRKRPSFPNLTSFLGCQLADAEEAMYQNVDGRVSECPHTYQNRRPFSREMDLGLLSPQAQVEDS
endpoint: IC50

CC1(COc2cccc(Nc3ncc(C(F)(F)F)c(N[C@@H]4CCCNC4)n3)c2)COC1 :: 16.5 nM
CC1(COc2ccc(Nc3ncc(C(F)(F)F)c(N[C@H]4CC[C@@H](N)CC4)n3)cc2)COC1 :: 7.42 nM
CN1CCN(c2nc(Nc3ccc(OCC4(C)COC4)cc3)ncc2C(F)(F)F)CC1 :: 339 nM
CC1(COc2ccc(Nc3ncc(C(F)(F)F)c(N4CCC(N)CC4)n3)cc2)COC1 :: 138 nM
CC1(COc2ccc(Nc3ncc(C(F)(F)F)c(N[C@H]4CC[C@H](N)CC4)n3)cc2)COC1 :: 29.9 nM
CC1(COc2cccc(Nc3ncc(C(F)(F)F)c(NCC4CCNCC4)n3)c2)COC1 :: 11 nM
CC1(COc2cccc(Nc3ncc(C(F)(F)F)c(NC4CCNCC4)n3)c2)COC1 :: 32.1 nM
CC1(COc2ccc(Nc3ncc(C(F)(F)F)c(N4CCNCC4)n3)cc2)COC1 :: 231 nM
CC1(COc2ccc(Nc3ncc(C(F)(F)F)c(N[C@@H]4CCCNC4)n3)cc2)COC1 :: 14.3 nM

###

# Tested on: MM1.S
# procedureText: Antiproliferative activity against human MM1.S cells assessed as inhibition of cell growth
# Type: functional, cell-based
# assaySetup: Homo sapiens, MM1.S
pIC50: −log10 of the molar value.
endpoint: pIC50

CCc1nc(C(N)=O)c(Nc2ccc(N3CCC(N4CCN(C)CC4)CC3)c(OC)c2)nc1NC1CCOCC1 [GILTERITINIB] :: 6.69
